method: Drug level in adipose in C57/B16 mouse at 30 mg/kg, po after 2 hrs
Type: ADME, organism-based
Set-up: dose 30 mg/kg, route oral
assay_context: read-out: Drug uptake
readout_kind: concentration at 2 h (µM)
Give the value in µM but do not write µM after it.

concentration at 2 h measured on C[C@H](NC1=NC(=O)[C@@](C)(C(F)(F)F)S1)c1ccccc1F = 234

----------
method: Drug level in adipose in C57/B16 mouse at 30 mg/kg, po after 6 hrs
Format: ADME, organism-based
Design: dose 30 mg/kg, route oral
assay_context: read-out: Drug uptake
readout_kind: concentration at 6 h (µM)
Give the value in µM but do not write µM after it.

concentration at 6 h measured on C[C@H](NC1=NC(=O)[C@@](C)(C(F)(F)F)S1)c1ccccc1F = 113

----------
method: Drug level in C57/B16 mouse plasma at 30 mg/kg, po after 6 hrs
Type: ADME, organism-based
Parameters: dose 30 mg/kg, route oral
readout_kind: concentration at 6 h (µM)
Give the value in µM but do not write µM after it.

concentration at 6 h measured on C[C@H](NC1=NC(=O)[C@@](C)(C(F)(F)F)S1)c1ccccc1F = 35

----------
Provide the reported log10 Cmax of each item.
method: Cmax in Sprague-Dawley rat at 10 mg/kg, po
Format: ADME, organism-based
Parameters: dose 10 mg/kg, route oral
assay_context: in vivo
Form field - Quantity: Cmax; Unit: ng/mL; Scale: log10

log10 Cmax measured on CC(C)[C@]1(C)SC(N[C@@H](C)c2ccccc2F)=NC1=O = 2.25

log10 Cmax measured on C[C@H](NC1=NC(=O)[C@](C)(C(F)(F)F)S1)c1ccccc1F = 3.09

log10 Cmax measured on C[C@H](NC1=NC(=O)[C@@](C)(C(F)(F)F)S1)c1ccccc1F = 3.67

log10 Cmax measured on C[C@H](NC1=NC(=O)C(C)(C(C)(C)F)S1)c1ccccc1F (stereo not given in full) = 3.03

log10 Cmax measured on C[C@H](NC1=NC(=O)C(C)(C(F)(F)F)S1)c1ccccc1F (stereo not given in full) = 3.02

----------
readout_kind: pKi
pKi is defined as minus the log10 of a concentration measured in mol/L.

Measured pKi (UniProt P50172), entry C[C@H](NC1=NC(=O)[C@@](C)(C(F)(F)F)S1)c1ccccc1F : 6.89

----------
method: Oral bioavailability in Sprague-Dawley rat at 10 mg/kg, po
Type: ADME, organism-based
assay_context: in vivo
readout_kind: bioavailability (%)
Give the value in % but do not write % after it.

bioavailability measured on C[C@H](NC1=NC(=O)C(C)(C(F)(F)F)S1)c1ccccc1F (stereo not given in full) = 55

bioavailability measured on C[C@H](NC1=NC(=O)C(C)(C(C)(C)F)S1)c1ccccc1F (stereo not given in full) = 47

bioavailability measured on CC(C)[C@]1(C)SC(N[C@@H](C)c2ccccc2F)=NC1=O = 20

bioavailability measured on C[C@H](NC1=NC(=O)[C@](C)(C(F)(F)F)S1)c1ccccc1F = 50

bioavailability measured on C[C@H](NC1=NC(=O)[C@@](C)(C(F)(F)F)S1)c1ccccc1F = 75

----------
method: Drug level in C57/B16 mouse plasma at 30 mg/kg, po after 2 hrs
Format: ADME, organism-based
Parameters: dose 30 mg/kg, route oral
readout_kind: concentration at 2 h (µM)
Give the value in µM but do not write µM after it.

concentration at 2 h measured on C[C@H](NC1=NC(=O)[C@@](C)(C(F)(F)F)S1)c1ccccc1F = 55

Entry source: ChEMBL document CHEMBL1141395
